# Measurement conditions: in n-methylformamide, 318.95 K
Endpoint label: solubility (mole fraction)

| Smiles entry | Endpoint value |
| --- | --- |
| O=C(O)c1ccccc1C(=O)O | 0.211 |

----------
# Measurement conditions: in DMAc, 296.15 K

| Smiles entry | solubility (mole fraction) |
| --- | --- |
| O=C(O)c1ccccc1C(=O)O | 0.168 |

----------
# Measurement conditions: in NMP, 319.25 K

| Smiles entry | solubility (mole fraction) |
| --- | --- |
| O=C(O)c1ccccc1C(=O)O | 0.147 |

----------
# Measurement conditions: in DMAc, 341.15 K

| Smiles entry | solubility (mole fraction) |
| --- | --- |
| Cc1ccccc1C(=O)O | 0.327 |
